Values from paper PMC8625693

Test system: P. falciparum NF54
Assay Info: In vitro microplate assay against P. falciparum NF54 (3H-hypoxanthine incorporation, erythrocytic stages)
Type: cell-based, Plasmodium falciparum
Condition Context: Plasmodium falciparum, NF54, chloroquine-sensitive strain NF54, blood stages; average of four determinations; read-out: P.f. NF54 IC50
Attribute Measured: IC50 (nM)
The figure you give is taken to be in nM; do not add the unit.

Molecule | Subject Of Test | IC50 / nM
CC(C)(C)N1CCN(c2ccccc2NC(=O)c2cccc(C(F)(F)F)c2Oc2ccc(F)cc2)CC1 [Compound 20] | P. falciparum NF54 | 2890

Next, consider the following molecule.
## Task IC50 of CC(C)(C)OC(=O)N1CCN(c2ccccc2NC(=O)c2cccc(C(F)(F)F)c2Oc2ccc(F)cc2)CC1 [Compound 1] on P. falciparum NF54?
## Result 413

---

Subject Of Test: CYP3A4 (Homo sapiens, UniProt P08684)
Construct: purchased Corning, Glendale, AZ, USA
Sequence (P08684 2-503 limits assumed): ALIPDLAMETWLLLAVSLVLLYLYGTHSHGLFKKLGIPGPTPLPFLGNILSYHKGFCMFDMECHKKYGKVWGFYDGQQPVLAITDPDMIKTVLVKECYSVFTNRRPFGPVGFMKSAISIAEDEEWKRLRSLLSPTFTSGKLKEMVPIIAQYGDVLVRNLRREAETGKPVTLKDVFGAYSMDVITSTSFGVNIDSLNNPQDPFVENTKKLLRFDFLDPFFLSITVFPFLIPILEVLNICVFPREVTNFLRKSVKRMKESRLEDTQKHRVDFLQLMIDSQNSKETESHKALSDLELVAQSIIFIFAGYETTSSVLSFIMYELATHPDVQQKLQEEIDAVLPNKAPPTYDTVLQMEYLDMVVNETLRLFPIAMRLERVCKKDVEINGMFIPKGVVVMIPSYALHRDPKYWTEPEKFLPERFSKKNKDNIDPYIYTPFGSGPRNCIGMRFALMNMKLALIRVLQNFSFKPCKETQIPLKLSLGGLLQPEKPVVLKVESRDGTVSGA
Assay Info: Cytochrom P450 3A4 inhibition assay (P450-Glo, luciferin-IPA)
Type: in vitro ADME
Condition Context: recombinant human CYP3A4 Supersomes (+ oxidoreductase + b5), probe luciferin-IPA, stock solutions diluted to 20 µM, pH 7.4, triplicate
Attribute Measured: inhibition at 10 min, 20 µM
The reply should read as a number followed by its unit.

Compound | Subject Of Test | inhibition at 10 min, 20 µM
CC(C)(C)OC(=O)N1CCN(c2ccccc2NC(=O)c2cccc(C(F)(F)F)c2Oc2ccccc2)CC1 | CYP3A4 (Homo sapiens, UniProt P08684) | 87%
CC(C)(C)OC(=O)N1CCN(c2ccc(NC(=O)c3cccc(C(F)(F)F)c3Oc3ccc(F)cc3)cc2)CC1 | CYP3A4 (Homo sapiens, UniProt P08684) | 93%
CC(C)(C)C(=O)N1CCN(c2ccccc2NC(=O)c2cccc(C(F)(F)F)c2Oc2ccc(F)cc2)CC1 | CYP3A4 (Homo sapiens, UniProt P08684) | 94%
CC(C)(C)C(=O)N1CCN(c2ccc(NC(=O)c3cccc(C(F)(F)F)c3Oc3ccccc3)cc2)CC1 | CYP3A4 (Homo sapiens, UniProt P08684) | 60%
Nc1ccc(NC(=O)c2cccc(C(F)(F)F)c2Oc2ccc(F)cc2)cc1 | CYP3A4 (Homo sapiens, UniProt P08684) | 88%

## Task Look up inhibition at 10 min, 20 µM for this molecule: CC(C)(C)OC(=O)N1CCN(c2cccc(NC(=O)c3cccc(C(F)(F)F)c3Oc3ccc(F)cc3)c2)CC1
## Result 96%

## Task Look up inhibition at 10 min, 20 µM for this molecule: CC(C)(C)C(=O)N1CCN(c2ccc(NC(=O)c3cccc(C(F)(F)F)c3Oc3ccc(F)cc3)cc2)CC1
## Result 89%

## Task Look up inhibition at 10 min, 20 µM for this molecule: CC(=O)Nc1ccc(Oc2c(C(=O)Nc3ccccc3N3CCN(C(=O)OC(C)(C)C)CC3)cccc2C(F)(F)F)cc1
## Result 99%

## Task Look up inhibition at 10 min, 20 µM for this molecule: CC(C)(C)OC(=O)Nc1ccccc1NC(=O)c1cccc(C(F)(F)F)c1Oc1ccc(F)cc1
## Result 90%

---

Test system: P. falciparum NF54
Assay Info: In vitro microplate assay against P. falciparum NF54 (3H-hypoxanthine incorporation, erythrocytic stages)
Format: cell-based, Plasmodium falciparum
Condition Context: Plasmodium falciparum, NF54, chloroquine-sensitive strain NF54, blood stages; average of four determinations; read-out: P.f. NF54 IC50
Criterion: IC50 strictly less than 2000 nM. Met: Y. Not met: N.

Compound | Category
CC(=O)N1CCN(c2ccccc2NC(=O)c2cccc(C(F)(F)F)c2Oc2ccc(F)cc2)CC1 | N

## Task Does the reported IC50 of the following compound sit strictly below 2000 nM? CC(C)(C)OC(=O)N1CCN(c2cccc(NC(=O)c3cccc(C(F)(F)F)c3Oc3ccc(F)cc3)c2)CC1
## Result N

## Task Does the reported IC50 of the following compound sit strictly below 2000 nM? CC(C)(C)OC(=O)N1CCN(c2ccccc2NC(=O)c2cccc(C(F)(F)F)c2)CC1
## Result N

## Task Does the reported IC50 of the following compound sit strictly below 2000 nM? CN(C)C(=O)N1CCN(c2ccccc2NC(=O)c2cccc(C(F)(F)F)c2Oc2ccc(F)cc2)CC1
## Result N

## Task Does the reported IC50 of the following compound sit strictly below 2000 nM? CC(C)(C)OC(=O)Nc1ccccc1NC(=O)c1cccc(C(F)(F)F)c1Oc1ccc(F)cc1
## Result Y

## Task Does the reported IC50 of the following compound sit strictly below 2000 nM? CC(C)(C)C(=O)N1CCN(c2cccc(NC(=O)c3cccc(C(F)(F)F)c3Oc3ccc(F)cc3)c2)CC1
## Result N

## Task Does the reported IC50 of the following compound sit strictly below 2000 nM? CC(C)(C)OC(=O)N1CCN(c2ccc(NC(=O)c3cccc(C(F)(F)F)c3Oc3ccccc3)cc2)CC1
## Result Y

## Task Does the reported IC50 of the following compound sit strictly below 2000 nM? CC(C)(C)OC(=O)N1CCN(c2ccc(NC(=O)c3cccc(C(F)(F)F)c3Oc3ccc(F)cc3)cc2)CC1
## Result Y

## Task Does the reported IC50 of the following compound sit strictly below 2000 nM? CC(C)(C)C(=O)N1CCN(c2ccc(NC(=O)c3cccc(C(F)(F)F)c3Oc3ccccc3)cc2)CC1
## Result N

---

Papp at 5 h, 200 µM by entry:
Assay Info: Parallel artificial membrane permeability assay (PAMPA)
Condition Context: pH 7.4
The figure you give is taken to be in ×10⁻⁶ cm/s; do not add the unit.

Examples with answers:
Compound | Papp at 5 h, 200 µM (×10⁻⁶ cm/s)
CC(C)(C)N1CCN(c2ccccc2NC(=O)c2cccc(C(F)(F)F)c2Oc2ccc(F)cc2)CC1 [Compound 20] | 2.48
CC(C)(C)C(=O)N1CCN(c2ccccc2NC(=O)c2cccc(C(F)(F)F)c2Oc2ccccc2)CC1 [Compound 56] | 0.11
O=C(Nc1ccccc1)c1cccc(C(F)(F)F)c1Oc1ccc(F)cc1 [Compound 12] | 10.1

Next, consider the following compound.
## Task Look up Papp at 5 h, 200 µM for this compound: CC(C)(C)OC(=O)N1CCN(c2ccccc2NC(=O)c2cccc(C(F)(F)F)c2Oc2ccccc2)CC1 [Compound 6]
## Result 3

---

Assay Info: Parallel artificial membrane permeability assay (PAMPA)
Condition Context: pH 7.4
Papp at 5 h, 200 µM by entry:
The figure you give is taken to be in ×10⁻⁶ cm/s; do not add the unit.

Examples with answers:
Molecule | Papp at 5 h, 200 µM (×10⁻⁶ cm/s)
Nc1ccccc1NC(=O)c1cccc(C(F)(F)F)c1Oc1ccc(F)cc1 [Compound 14] | 11.4
CC(=O)N1CCN(c2ccccc2NC(=O)c2cccc(C(F)(F)F)c2Oc2ccc(F)cc2)CC1 [Compound 17] | 10.1
CC(C)(C)C(=O)N1CCN(c2ccc(NC(=O)c3cccc(C(F)(F)F)c3Oc3ccccc3)cc2)CC1 [Compound 55] | 11.2
CC(C)(C)C(=O)N1CCN(c2ccccc2NC(=O)c2cccc(C(F)(F)F)c2Oc2ccc(F)cc2)CC1 [Compound 19] | 0.23

## Task Look up Papp at 5 h, 200 µM for this molecule: CC(C)(C)OC(=O)N1CCN(c2ccccc2NC(=O)c2cccc(C(F)(F)F)c2Oc2ccc(F)cc2)CC1 [Compound 1]
## Result 2.37

## Task Look up Papp at 5 h, 200 µM for this molecule: CC(=O)Nc1ccc(Oc2c(C(=O)Nc3ccccc3N3CCN(C(=O)OC(C)(C)C)CC3)cccc2C(F)(F)F)cc1 [Compound 8]
## Result 4.06

---

Assay Info: Parallel artificial membrane permeability assay (PAMPA)
Condition Context: pH 7.4
Papp at 5 h, 200 µM by entry:
The figure you give is taken to be in ×10⁻⁶ cm/s; do not add the unit.

Examples with answers:
Compound | Number
Nc1cccc(NC(=O)c2cccc(C(F)(F)F)c2Oc2ccc(F)cc2)c1 | 18.4
CC(C)(C)OC(=O)N1CCN(c2ccc(NC(=O)c3cccc(C(F)(F)F)c3Oc3ccccc3)cc2)CC1 | 1.22
CC(C)(C)C(=O)N1CCN(c2cccc(NC(=O)c3cccc(C(F)(F)F)c3Oc3ccc(F)cc3)c2)CC1 | 1.17
Cn1c(=O)c2c(ncn2C)n(C)c1=O [caffeine, reference compound] | 8
CC(C)(C)OC(=O)N1CCN(c2ccc(NC(=O)c3cccc(C(F)(F)F)c3Oc3ccc(F)cc3)cc2)CC1 | 0.09
NC(=O)N1CCN(c2ccccc2NC(=O)c2cccc(C(F)(F)F)c2Oc2ccc(F)cc2)CC1 | 7.44
CC(C)(C)OC(=O)N1CCN(c2ccccc2NC(=O)c2cccc(C(F)(F)F)c2)CC1 | 0.08

Next, consider the following compound.
## Task Look up Papp at 5 h, 200 µM for this compound: CC(C)(C)C(=O)N1CCN(c2ccc(NC(=O)c3cccc(C(F)(F)F)c3Oc3ccc(F)cc3)cc2)CC1
## Result 0.24
